- ASSAY DETAILS: MTT test (viability) on primary keratinocytes (NHK)
- Assay type: cell-based
- MEASUREMENT CONDITIONS: human, primary keratinocytes (NHK); MTT test, NHK, 10^−4 M; read-out: Max. inhibition (%) (maximum decrease in viability)
READOUT LABEL: cytotoxicity (%)
Just the number in %, nothing appended.

Examples with answers:
Cc1cn([C@H]2CC(=O)[C@@H](CO)O2)c(=O)[nH]c1=O [HM-1, 3′-Deoxy-3′-oxothymidine] :: 23
O=c1[nH]cc(F)c(=O)[nH]1 [Substance 5-FU, 5-fluorouracil] :: 41
Cc1cn([C@H]2CC(=NO)[C@@H](CO)O2)c(=O)[nH]c1=O [HM-1 oxime, 3′-deoxy-3′-hydroxyliminothymidine] :: 3

Return value of cytotoxicity for input C[C@@]1(CO)[C@H](O)CC[C@@]2(C)[C@H]1CC[C@H]1C[C@@H]3C[C@@]12CC[C@]3(O)CO [Aphidicolin] , no commentary.
44

---

- ASSAY DETAILS: MTT test (viability) on dermal fibroblasts
- Type: cell-based
- MEASUREMENT CONDITIONS: Fibrob., 10^−4 M, read-out: Max. inhibition (%) (maximum decrease in viability)
READOUT LABEL: cytotoxicity (%)
Just the number in %, nothing appended.

O=c1[nH]cc(F)c(=O)[nH]1 [Substance 5-FU, 5-fluorouracil] :: 88

Return value of cytotoxicity for input C[C@@]1(CO)[C@H](O)CC[C@@]2(C)[C@H]1CC[C@H]1C[C@@H]3C[C@@]12CC[C@]3(O)CO [Aphidicolin] , no commentary.
54

---

- ASSAY DETAILS: MTT test (viability) on HaCaT keratinocyte cell line
- Assay type: cell-based
- MEASUREMENT CONDITIONS: human, 10^−4 M, read-out: Max. inhibition (%) (maximum decrease in viability)
READOUT LABEL: cytotoxicity
# do not omit the unit; it follows the number

Examples with answers:
O=c1[nH]cc(F)c(=O)[nH]1 :: 80%
C[C@@]1(CO)[C@H](O)CC[C@@]2(C)[C@H]1CC[C@H]1C[C@@H]3C[C@@]12CC[C@]3(O)CO :: 86%
Cc1cn([C@H]2CC(=O)[C@@H](CO)O2)c(=O)[nH]c1=O :: 16%

Return value of cytotoxicity for input Cc1cn([C@H]2CC(=NO)[C@@H](CO)O2)c(=O)[nH]c1=O [HM-1 oxime, 3′-deoxy-3′-hydroxyliminothymidine] , no commentary.
20%

---

Below is a list of entries, each paired with its recorded inhibition at 100 µM value.
- Tested on: SCC-25 cells
- ASSAY DETAILS: MTT test (viability) on SCC-25 tumor cells
- Format: cell-based
- MEASUREMENT CONDITIONS: Homo sapiens; MTT test 48 h, SCC-25 cells; inhibitionmax = 100 − E, E = activity at 10^−4 M in %; read-out: max. inhibition
Just the number in %, nothing appended.

Examples with answers:
C[C@@]1(CO)[C@H](O)CC[C@@]2(C)[C@H]1CC[C@H]1C[C@@H]3C[C@@]12CC[C@]3(O)CO :: 66
O=c1[nH]cc(F)c(=O)[nH]1 :: 42
Cc1cn([C@H]2CC(=O)[C@@H](CO)O2)c(=O)[nH]c1=O :: 47

Now turn to the next compound.
Return value of inhibition at 100 µM for input Cc1cn([C@H]2CC(=NO)[C@@H](CO)O2)c(=O)[nH]c1=O [HM-1 oxime, 3′-deoxy-3′-hydroxyliminothymidine] , no commentary.
36

Values were extracted from patent US20110182973A1.
